# Test system: HCT116 and MCF10A cells
# test-method-notes: Screen for potentiation of DNA damaging agents, cell line not stated with the result
# Format: cell-based, human
# particulars: cell line not stated
measurement-type: cell survival: sensitivity to DNA damaging agent (IR, MMS)

• Nc1nc(S)nc(O)c1/N=C/c1ccccc1 = IR sensitive
• O=C(O)CSc1cc(Cl)c2nonc2c1[N+](=O)[O-] = IR sensitive

----------
# measured-on: hLigI (Homo sapiens, UniProt P18858)
# Construct: made in house
# Sequence (P18858 whole entry): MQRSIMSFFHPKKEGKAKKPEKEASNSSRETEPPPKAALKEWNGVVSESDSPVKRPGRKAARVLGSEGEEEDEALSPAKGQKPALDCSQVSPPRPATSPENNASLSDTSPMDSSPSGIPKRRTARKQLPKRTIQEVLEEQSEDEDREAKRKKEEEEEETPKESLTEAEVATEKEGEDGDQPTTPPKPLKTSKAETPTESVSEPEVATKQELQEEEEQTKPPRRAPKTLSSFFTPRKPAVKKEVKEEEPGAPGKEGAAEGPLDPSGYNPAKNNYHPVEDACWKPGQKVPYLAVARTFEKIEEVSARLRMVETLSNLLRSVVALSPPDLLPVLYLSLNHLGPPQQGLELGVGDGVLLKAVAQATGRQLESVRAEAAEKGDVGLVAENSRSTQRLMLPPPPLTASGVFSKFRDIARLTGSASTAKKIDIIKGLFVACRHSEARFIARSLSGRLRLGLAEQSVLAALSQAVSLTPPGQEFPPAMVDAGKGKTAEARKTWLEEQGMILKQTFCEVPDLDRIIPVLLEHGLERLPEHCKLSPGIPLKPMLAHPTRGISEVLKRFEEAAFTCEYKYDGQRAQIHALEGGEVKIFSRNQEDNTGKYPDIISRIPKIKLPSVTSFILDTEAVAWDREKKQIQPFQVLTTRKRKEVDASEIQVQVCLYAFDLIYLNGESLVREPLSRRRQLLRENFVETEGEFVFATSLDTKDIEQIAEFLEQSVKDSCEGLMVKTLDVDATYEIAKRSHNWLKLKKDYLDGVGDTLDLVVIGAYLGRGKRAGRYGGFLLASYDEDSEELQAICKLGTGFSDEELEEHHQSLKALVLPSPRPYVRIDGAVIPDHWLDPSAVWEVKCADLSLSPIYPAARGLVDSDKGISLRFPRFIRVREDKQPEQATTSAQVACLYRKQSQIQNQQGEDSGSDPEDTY
# test-method-notes: High-throughput fluorescence-based DNA joining (ligation) assay
# Format: biochemical
# particulars: 100 μM; read-out: % of inhibition @ 100 μM (Helen's data) hLigI
So I've got a bunch of compounds here, and I need their inhibition at 100 µM values.

The following compounds each have a reported value; give each one's inhibition at 100 µM.
1. Sc1nccc(-c2cccnc2)n1
2. O=C(O)c1ccc([N+](=O)[O-])c(C(=O)O)n1
3. Cc1c(Br)cc(NCC(=O)N/N=C\c2cc([N+](=O)[O-])ccc2O)cc1Br
4. O=C(COC(=O)c1ccc2ccccc2c1O)c1cccs1
5. O=C(Nc1nc2ccccc2s1)c1ccc(Cl)c([N+](=O)[O-])c1
6. C=CCN1C(=O)/C(=C\c2ccccc2C(=O)O)SC1=S

1: < 20%; 2: < 20%; 3: 78%; 4: < 20%; 5: < 20%; 6: < 20%
